# Test system: UMC-11
# PROTOCOL: relative viability (nuclei count vs DMSO), 5 days (fraction); higher = more cells survive
# EXPERIMENTAL_SETUP: first compound 0.2 µM
ENDPOINT_LABEL: relative viability
Numbers only.

INSERT INTO assay_data (molecule, measured_value) VALUES
  ('COCC1(CO)C(=O)C2CCN1CC2 (centres undefined) [PRIMA-1MET] + CC1(C)CCC(c2ccc(Cl)cc2)=C(CN2CCN(c3ccc(C(=O)NS(=O)(=O)c4ccc(N[C@H](CCN5CCOCC5)CSc5ccccc5)c(S(=O)(=O)C(F)(F)F)c4)cc3)CC2)C1 [Navitoclax] (partner 0.5 µM)', 0.347),
  ('COCC1(CO)C(=O)C2CCN1CC2 (centres undefined) [PRIMA-1MET] + C[C@@H](Oc1cc(-c2cnn(C3CCNCC3)c2)cnc1N)c1c(Cl)ccc(F)c1Cl [Crizotinib] (partner 1 µM)', 0.536),
  ('COCC1(CO)C(=O)C2CCN1CC2 (centres undefined) [PRIMA-1MET] + Cc1cc(Nc2cc(N3CCN(C)CC3)nc(Sc3ccc(NC(=O)C4CC4)cc3)n2)n[nH]1 [Tozasertib] (partner 0.1 µM)', 0.215);

Now turn to the next molecule.
Can you share its relative viability? I mean this molecule: COCC1(CO)C(=O)C2CCN1CC2 (centres undefined) [PRIMA-1MET] + O=C(CCCCCCC(=O)Nc1ccccc1)NO [Vorinostat] (partner 1 µM)
0.422

---

Please go through the items and note down their relative viability.
# System: PC-3 [JPC-3]
# PROTOCOL: relative viability (nuclei count vs DMSO), 5 days (fraction); higher = more cells survive
# EXPERIMENTAL_SETUP: first compound 0.03162 µM
Give bare numbers.

INSERT INTO results (molecule, endpoint_label, measured_value) VALUES
  ('O=c1cc(N2CCOCC2)oc2c(-c3cccc4c3sc3ccccc34)cccc12 + CS(=O)(=O)CCNCc1ccc(-c2ccc3ncnc(Nc4ccc(OCc5cccc(F)c5)c(Cl)c4)c3c2)o1 [Lapatinib] (partner 2 µM)', 'relative viability', 0.435);

Can you share its relative viability? I mean this molecule: CCN(CC)CCCCNc1ncc2cc(-c3cc(OC)cc(OC)c3)c(NC(=O)NC(C)(C)C)nc2n1 + CS(=O)(=O)N1CCN(Cc2cc3nc(-c4cccc5[nH]ncc45)nc(N4CCOCC4)c3s2)CC1 [Pictilisib] (partner 1 µM)
0.843

---

Please go through the items and note down their relative viability.
# Tested on: NCI-H2126
# PROTOCOL: relative viability (nuclei count vs DMSO), 5 days (fraction); higher = more cells survive
# EXPERIMENTAL_SETUP: first compound 1 µM
Numbers only.

# example entries with known answers
INSERT INTO measurements (compound, endpoint_label, measured_value) VALUES
  ('CCN(CC)CCCCNc1ncc2cc(-c3cc(OC)cc(OC)c3)c(NC(=O)NC(C)(C)C)nc2n1 + N=C(N)NC(=N)NCCc1ccccc1 [Phenformin] (partner 250 µM)', 'relative viability', 0.515),
  ('CCN(CC)CCCCNc1ncc2cc(-c3cc(OC)cc(OC)c3)c(NC(=O)NC(C)(C)C)nc2n1 + Nc1nc2[nH]cc(CCc3ccc(C(=O)N[C@@H](CCC(=O)O)C(=O)O)cc3)c2c(=O)[nH]1 [Pemetrexed] (partner 0.2 µM)', 'relative viability', 0.749),
  ('CCN(CC)CCCCNc1ncc2cc(-c3cc(OC)cc(OC)c3)c(NC(=O)NC(C)(C)C)nc2n1 + O=C(CCCCCCC(=O)Nc1ccccc1)NO [Vorinostat] (partner 1 µM)', 'relative viability', 0.822),
  ('O=c1cc(N2CCOCC2)oc2c(-c3cccc4c3sc3ccccc34)cccc12 + C[C@@H](Oc1cc(-c2cnn(C3CCNCC3)c2)cnc1N)c1c(Cl)ccc(F)c1Cl [Crizotinib] (partner 1 µM)', 'relative viability', 0.955),
  ('O=c1cc(N2CCOCC2)oc2c(-c3cccc4c3sc3ccccc34)cccc12 + O=C(c1cc(Cc2n[nH]c(=O)c3ccccc23)ccc1F)N1CCN(C(=O)C2CC2)CC1 [Olaparib] (partner 8 µM)', 'relative viability', 0.918);

Now turn to the next compound.
Request body: readout relative viability, system NCI-H2126, query CCN(CC)CCCCNc1ncc2cc(-c3cc(OC)cc(OC)c3)c(NC(=O)NC(C)(C)C)nc2n1 + CC(=O)Nc1cccc(-n2c(=O)n(C3CC3)c(=O)c3c(Nc4ccc(I)cc4F)n(C)c(=O)c(C)c32)c1 [Trametinib] (partner 0.02 µM) . Return the value.
0.578

---

Please go through the items and note down their relative viability.
# System: HCC-44
# PROTOCOL: relative viability (nuclei count vs DMSO), 5 days (fraction); higher = more cells survive
# EXPERIMENTAL_SETUP: first compound 0.3162 µM
Numbers only.

INSERT INTO measurements (compound, target_system, measured_value) VALUES
  ('O=c1cc(N2CCOCC2)oc2c(-c3cccc4c3sc3ccccc34)cccc12 + C[C@]1(O)C[C@@H](c2nc(-c3ccc4ccc(-c5ccccc5)nc4c3)c3c(N)nccn32)C1 [Linsitinib] (partner 1 µM)', 'HCC-44', 0.684),
  ('CCN(CC)CCCCNc1ncc2cc(-c3cc(OC)cc(OC)c3)c(NC(=O)NC(C)(C)C)nc2n1 + O=C(c1cc(Cc2n[nH]c(=O)c3ccccc23)ccc1F)N1CCN(C(=O)C2CC2)CC1 [Olaparib] (partner 8 µM)', 'HCC-44', 1.01);

Now turn to the next compound.
Request body: readout relative viability, system HCC-44, query CCN(CC)CCCCNc1ncc2cc(-c3cc(OC)cc(OC)c3)c(NC(=O)NC(C)(C)C)nc2n1 + CC(C)C[C@H](NC(=O)[C@H](Cc1ccccc1)NC(=O)c1cnccn1)B(O)O [Bortezomib] (partner 0.002 µM) . Return the value.
1.03

---

# Test system: SW 1573
# PROTOCOL: relative viability (nuclei count vs DMSO), 5 days (fraction); higher = more cells survive
# EXPERIMENTAL_SETUP: first compound 0.2 µM
ENDPOINT_LABEL: relative viability
Answers are plain numbers.

# example entries with known answers
INSERT INTO results (molecule, endpoint_label, measured_value) VALUES
  ('COCC1(CO)C(=O)C2CCN1CC2 (stereo not given) [PRIMA-1MET] + N=C(N)NC(=N)NCCc1ccccc1 [Phenformin] (partner 250 µM)', 'relative viability', 0.408),
  ('COCC1(CO)C(=O)C2CCN1CC2 (stereo not given) [PRIMA-1MET] + Nc1nc2[nH]cc(CCc3ccc(C(=O)N[C@@H](CCC(=O)O)C(=O)O)cc3)c2c(=O)[nH]1 [Pemetrexed] (partner 0.2 µM)', 'relative viability', 0.882),
  ('COCC1(CO)C(=O)C2CCN1CC2 (stereo not given) [PRIMA-1MET] + CC(C)C[C@H](NC(=O)[C@H](Cc1ccccc1)NC(=O)c1cnccn1)B(O)O [Bortezomib] (partner 0.002 µM)', 'relative viability', 1.13),
  ('COCC1(CO)C(=O)C2CCN1CC2 (stereo not given) [PRIMA-1MET] + C[C@@H](Oc1cc(-c2cnn(C3CCNCC3)c2)cnc1N)c1c(Cl)ccc(F)c1Cl [Crizotinib] (partner 1 µM)', 'relative viability', 0.935);

Now turn to the next molecule.
Can you share its relative viability? I mean this molecule: COCC1(CO)C(=O)C2CCN1CC2 (stereo not given) [PRIMA-1MET] + CS(=O)(=O)CCNCc1ccc(-c2ccc3ncnc(Nc4ccc(OCc5cccc(F)c5)c(Cl)c4)c3c2)o1 [Lapatinib] (partner 2 µM)
1.26

---

Please go through the items and note down their relative viability.
# Tested on: NCI-H3122
# PROTOCOL: relative viability (nuclei count vs DMSO), 5 days (fraction); higher = more cells survive
# EXPERIMENTAL_SETUP: first compound 0.8 µM
Numbers only.

# example entries with known answers
INSERT INTO results (molecule, measured_value) VALUES
  ('O=c1cc(-c2cccc3c2Sc2ccccc2S3)oc(N2CCOCC2)c1 + Nc1nc2[nH]cc(CCc3ccc(C(=O)N[C@@H](CCC(=O)O)C(=O)O)cc3)c2c(=O)[nH]1 [Pemetrexed] (partner 0.2 µM)', 0.186),
  ('O=c1cc(-c2cccc3c2Sc2ccccc2S3)oc(N2CCOCC2)c1 + O=C(CCCCCCC(=O)Nc1ccccc1)NO [Vorinostat] (partner 1 µM)', 1.09);

Now turn to the next molecule.
Can you share its relative viability? I mean this molecule: O=c1cc(-c2cccc3c2Sc2ccccc2S3)oc(N2CCOCC2)c1 + CS(=O)(=O)CCNCc1ccc(-c2ccc3ncnc(Nc4ccc(OCc5cccc(F)c5)c(Cl)c4)c3c2)o1 [Lapatinib] (partner 2 µM)
1

---

# Test system: NCI-H2023
# PROTOCOL: relative viability (nuclei count vs DMSO), 5 days (fraction); higher = more cells survive
# EXPERIMENTAL_SETUP: first compound 0.253 µM
Kindly apply the following: Y if relative viability is less than 0.6, N in every other case.

Solved cases below.
INSERT INTO measurements (molecule, answer_label) VALUES
  ('O=c1cc(-c2cccc3c2Sc2ccccc2S3)oc(N2CCOCC2)c1 + Cc1nc(NC(=O)N2CCC[C@H]2C(N)=O)sc1-c1ccnc(C(C)(C)C(F)(F)F)c1 [Alpelisib] (partner 2 µM)', 'N'),
  ('O=c1cc(-c2cccc3c2Sc2ccccc2S3)oc(N2CCOCC2)c1 + CC(=O)Nc1cccc(-n2c(=O)n(C3CC3)c(=O)c3c(Nc4ccc(I)cc4F)n(C)c(=O)c(C)c32)c1 [Trametinib] (partner 0.02 µM)', 'N'),
  ('O=c1cc(-c2cccc3c2Sc2ccccc2S3)oc(N2CCOCC2)c1 + CS(=O)(=O)N1CCN(Cc2cc3nc(-c4cccc5[nH]ncc45)nc(N4CCOCC4)c3s2)CC1 [Pictilisib] (partner 1 µM)', 'Y'),
  ('O=c1cc(-c2cccc3c2Sc2ccccc2S3)oc(N2CCOCC2)c1 + COc1cccc2cc(-c3nc([C@H]4CC[C@H](C(=O)O)CC4)n4ncnc(N)c34)[nH]c12 [OSI-027] (partner 0.5 µM)', 'Y');

Find out if reported relative viability for O=c1cc(-c2cccc3c2Sc2ccccc2S3)oc(N2CCOCC2)c1 + Nc1nc2[nH]cc(CCc3ccc(C(=O)N[C@@H](CCC(=O)O)C(=O)O)cc3)c2c(=O)[nH]1 [Pemetrexed] (partner 0.2 µM) is less than 0.6
Y
